Hello, the source for this data is ChEMBL document CHEMBL1124148, in case you need it.

Target protein (sequence): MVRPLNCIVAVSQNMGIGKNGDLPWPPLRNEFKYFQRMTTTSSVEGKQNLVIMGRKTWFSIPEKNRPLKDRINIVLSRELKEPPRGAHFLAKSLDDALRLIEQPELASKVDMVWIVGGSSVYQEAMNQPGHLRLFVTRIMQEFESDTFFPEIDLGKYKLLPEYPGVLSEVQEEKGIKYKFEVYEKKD
Each entry below lists one item and its recorded IC50 value.
# number only, unit nM dropped from output

compound	IC50 / nM
CC(=O)NCCCC(NC(=O)c1ccc(N(C=O)Cc2cnc3nc(N)nc(N)c3n2)cc1)C(=O)O (stereo not drawn)	53
Nc1nc(N)c2nc(CNc3ccc(C(=O)N[C@@H](CCCNC(=O)c4ccc(Cl)c(Cl)c4)C(=O)O)cc3)cnc2n1	45

Now for the compound whose IC50 we want.
-- ask Which IC50 is reported for this compound? Nc1nc(N)c2nc(CNc3ccc(C(=O)NC(CCCNC(=O)c4ccc(Cl)cc4)C(=O)O)cc3)cnc2n1 (stereo not drawn)
-- reply 28
